Ref: the supplement of paper PMC12764529

experiment: folding stability dG unfold from trypsin proteolysis; higher = more stable
Rule: folding stability dG unfold under 2 kcal/mol gives not met, otherwise met.

{"columns": ["Sequence Code", "Label Value"],
 "data": [
  ["SAGGSLPELLKLAKELAKKLGAKDLTAKESGEITIKSPENITITVSTEDGEPVVTINNTSTSSTIPLSAGGS [r16_296_JUSTAS]", "not met"],
  ["SAGGKYVIIMFPLPPNLEVEIEYPGVPVHRTPNGSLMFQIPPNEPIRIKIKNPNGEEEELPINIFPLSAGGS [r8_72_TrROS]", "not met"],
  ["SAGGSAIFVVKIEPPNGNPITFMFWFKTPEEAESQVEEIAEQLPPDWKVEVEYIPAEDLKNGKPFFSAGGSA [r15_469_TrROS]", "met"],
  ["SAGGPFDDFEPLGTIPFKVNGMEIEIQIWRMKNPGHYMVDIRNPGFGIPVMYWVPPGDIEEILDLIRSAGGS [r8_469_TrROS]", "met"],
  ["SAGGSMTFKAEVTPLDTFPLFDANGKPVAEVKVYTATIEFPDGSRVEIRGVEVGDELYILEIRPLDSAGGSA [r2_158_TrMRF]", "not met"],
  ["SEEIIKALEEAGYEVESIEYDEETKTVTITIYRKNKETGKIEKKTITIEVEPGMTEEELLALARELLEKESA [r9_184_TrROS_Hall]", "met"],
  ["SAGGKTISIEFYMPPGEPPPSIEEIAKELFPGYKDIKIKNIEIEDVEPDPDNGMKYVRVSFTIEVEPPSAGG [r13_10_TrROS]", "met"],
  ["SAGGSAGGSAGGGELKELLKKNPGPLLLERPENTVSLILYDPKTGTYTVLTFSPTEPIPLSAGGSAGGSAGG [r7_84_JUSTAS]", "not met"],
  ["SAGGWWIITIEFPNPEQIKKILEEAGWKVDIERRPNGSVTIFFPPDDVDKIKKAFPGFEINIHPIPPNSAGG [r13_261_TrROS]", "met"],
  ["SAGGSAGGSMTIVDPETGETLEIIEVKKNEDGKESFIFRISSPKPRYFIIDKDGNIRVIEKKDSAGGSAGGS [r12_205_TrROS_Hall]", "not met"],
  ["SAGMTTTVTLKAPDGTTATVTIPPDGNAVMTIETPEGTSTRTVPVPADVSIEEILKEYPNYTIVSREAASAG [r5_259_JUSTAS]", "not met"],
  ["SAGGSAGGSAGMPPGSIKVTVTSTAPDGTPSTTESTIPPSQVDKVKAEAAAKGWTVSFTGSAGGSAGGSAGG [r11_603_JUSTAS]", "not met"],
  ["SAMKIVEIVEYDKEKKKIRIKIEVNGKLLEIEIEAESEEEVEEALKKLKEELEFELPDGKKVRITEIEISAG [r14_422_TrROS_Hall]", "not met"]
]}
